The reader will find reported C2GnT2 activity (%) values listed item by item below.
# Tested target: human recombinant core 2/4 β1,6-GlcNAc-transferase (C2GnT2) (Homo sapiens)
# Sequence (O95395 27-438): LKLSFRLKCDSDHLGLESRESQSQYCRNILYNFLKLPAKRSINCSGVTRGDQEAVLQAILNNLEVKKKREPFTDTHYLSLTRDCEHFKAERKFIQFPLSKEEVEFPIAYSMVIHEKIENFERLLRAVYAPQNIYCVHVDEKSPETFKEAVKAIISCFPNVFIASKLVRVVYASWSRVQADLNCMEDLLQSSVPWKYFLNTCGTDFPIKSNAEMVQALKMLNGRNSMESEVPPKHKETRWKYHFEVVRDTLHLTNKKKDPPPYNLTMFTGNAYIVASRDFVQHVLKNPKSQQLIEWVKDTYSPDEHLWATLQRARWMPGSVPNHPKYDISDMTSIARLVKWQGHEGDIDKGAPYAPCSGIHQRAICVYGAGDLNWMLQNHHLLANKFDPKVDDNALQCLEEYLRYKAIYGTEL
# Type: biochemical
# Measurement conditions: acceptor substrate 0.5 mM; 0.5 mM Galβ1–3GalNAcα-pnp set to 100%

Compound	Tested target	Units symbol	Value comparator	C2GnT2 activity (%)
CC(=O)N[C@H]1[C@@H](OCc2ccccc2)O[C@H](CO[C@@H]2O[C@H](CO)[C@@H](O)[C@H](O)[C@H]2NC(C)=O)[C@H](O)[C@@H]1O [GlcNAcβ1–6-GalNAcα-Bn]	human recombinant core 2/4 β1,6-GlcNAc-transferase (C2GnT2) (Homo sapiens)	%	<	1
C=CCO[C@H]1O[C@H](CO)[C@H](O)[C@H](O[C@@H]2O[C@H](CO)[C@@H](O)[C@H](O)[C@H]2NC(C)=O)[C@H]1NC(C)=O [GlcNAcβ1–3GalNAcα-allyl]	human recombinant core 2/4 β1,6-GlcNAc-transferase (C2GnT2) (Homo sapiens)	%	=	27
CC(=O)N[C@H]1[C@@H](OCc2ccccc2)O[C@H](CO)[C@H](O)[C@@H]1O[C@@H]1O[C@H](CO)[C@H](O)[C@H](O[C@@H]2O[C@H](CO)[C@@H](O)[C@H](O[C@@H]3O[C@H](CO)[C@H](O)[C@H](O)[C@H]3O)[C@H]2NC(C)=O)[C@H]1O [Galβ1–3GlcNAcβ1–3Galβ1–3GalNAcα-Bn]	human recombinant core 2/4 β1,6-GlcNAc-transferase (C2GnT2) (Homo sapiens)	%	<	1
C=C(C)C1CC=C(CO[C@H]2O[C@H](CO)[C@H](O)[C@H](O[C@@H]3O[C@H](CO)[C@H](O)[C@H](O)[C@H]3O)[C@H]2NC(C)=O)CC1 (stereo partly shown) [Galβ1–3GalNAcα-perillyl]	human recombinant core 2/4 β1,6-GlcNAc-transferase (C2GnT2) (Homo sapiens)	%	=	86

* * *

# Tested target: human recombinant core 2 β1,6-GlcNAc-transferase (C2GnT1) (Homo sapiens, UniProt Q02742)
# Sequence (Q02742 33-428 limits assumed): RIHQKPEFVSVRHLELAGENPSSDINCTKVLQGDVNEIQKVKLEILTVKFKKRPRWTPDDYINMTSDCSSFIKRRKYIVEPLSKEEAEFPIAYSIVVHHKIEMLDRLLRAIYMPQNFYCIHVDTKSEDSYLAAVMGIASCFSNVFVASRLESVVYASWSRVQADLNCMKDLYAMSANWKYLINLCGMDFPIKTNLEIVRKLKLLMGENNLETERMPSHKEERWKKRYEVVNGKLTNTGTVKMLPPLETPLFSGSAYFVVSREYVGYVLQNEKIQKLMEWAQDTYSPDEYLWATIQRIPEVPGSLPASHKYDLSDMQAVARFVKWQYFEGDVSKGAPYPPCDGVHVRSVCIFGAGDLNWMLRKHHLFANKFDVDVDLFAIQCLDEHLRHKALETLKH
# Experiment notes: C2GnT1 glycosyltransferase assay
# Format: biochemical
# Measurement conditions: acceptor substrate 0.5 mM; 0.5 mM Galβ1–3GalNAcα-pnp set to 100%
Marks after values point to notes of the source that are not given here.
The reader will find reported C2GnT1 activity (%) values listed item by item below.
Measure name: C2GnT1 activity (%)

Molecule	Measure name	Value measured
CC(=O)N[C@H]1[C@@H](OCc2ccccc2)O[C@H](CO)[C@H](O)[C@@H]1O[C@@H]1O[C@H](CO)[C@H](O)[C@H](O[C@@H]2O[C@H](CO)[C@@H](O)[C@H](O[C@@H]3O[C@H](CO)[C@H](O)[C@H](O)[C@H]3O)[C@H]2NC(C)=O)[C@H]1O [Galβ1–3GlcNAcβ1–3Galβ1–3GalNAcα-Bn]	C2GnT1 activity (%)	<1%
COC[C@H]1O[C@H](OCc2ccccc2)[C@H](NC(C)=O)[C@@H](O[C@@H]2O[C@H](CO)[C@H](O)[C@H](O)[C@H]2O)[C@H]1O [Galβ1–3(6-O-methyl)GalNAcα-Bn]	C2GnT1 activity (%)	<1%
CC(=O)N[C@H]1[C@@H](OCc2ccccc2)O[C@H](CO)[C@H](O)[C@@H]1O[C@@H]1O[C@H](C)[C@H](O)[C@H](O)[C@H]1O [6-Deoxy-Galβ1–3GalNAcαBn]	C2GnT1 activity (%)	<1%
CC(=O)N[C@H]1[C@H](O[C@H]2[C@@H](O)[C@@H](CO)O[C@H](Oc3ccc([N+](=O)[O-])cc3)[C@@H]2NC(C)=O)O[C@H](CO)[C@@H](O)[C@@H]1O [GlcNAcβ1–3GalNAcα-pnp, reference compound]	C2GnT1 activity (%)	<1%
CC(=O)N[C@H]1[C@@H](Oc2ccc([N+](=O)[O-])cc2)O[C@H](CO)[C@H](O)[C@@H]1O[C@@H]1O[C@H](CO)[C@H](O)[C@H](O)[C@H]1O [Galβ1–3GalNAcα-pnp, reference compound]	C2GnT1 activity (%)	100 ^a %
CC(=O)N[C@H]1[C@H](OC[C@H]2O[C@H](OCc3ccccc3)[C@H](NC(C)=O)[C@@H](O[C@@H]3O[C@H](CO)[C@@H](O)[C@H](O)[C@H]3NC(C)=O)[C@H]2O)O[C@H](CO)[C@@H](O)[C@@H]1O [GlcNAcβ1–6(GlcNAcβ1–3)GalNAcα-Bn]	C2GnT1 activity (%)	<1%
CCCC(=O)N[C@H]1[C@@H](OCc2ccccc2)O[C@H](CO)[C@H](O)[C@@H]1O [2-N-Butyryl-GalNα-Bn]	C2GnT1 activity (%)	<1%
CC(=O)N[C@H]1[C@@H](OCc2ccccc2)O[C@H](CO)[C@H](O)[C@@H]1O [GalNAcα-Bn, reference compound]	C2GnT1 activity (%)	<1%
CC(=O)N[C@H]1[C@@H](OCc2ccccc2)O[C@H](CO)[C@H](O)[C@@H]1O[C@@H]1O[C@H](CO)[C@H](O)C[C@H]1O [3-Deoxy-Galβ1–3GalNAcα-Bn]	C2GnT1 activity (%)	90%
C=C(C)C1CC=C(CO[C@H]2O[C@H](CO)[C@H](O)[C@H](O[C@@H]3O[C@H](CO)[C@H](O)[C@H](O)[C@H]3O)[C@H]2NC(C)=O)CC1 (some centres unmarked) [Galβ1–3GalNAcα-perillyl]	C2GnT1 activity (%)	135%
CC(=O)N[C@H]1[C@@H](Oc2ccccc2[N+](=O)[O-])O[C@H](CO)[C@H](O)[C@@H]1O[C@@H]1O[C@H](CO)[C@H](O)[C@H](O)[C@H]1O [Galβ1–3GalNAcα-onp]	C2GnT1 activity (%)	79%
C=CCO[C@H]1O[C@H](CO)[C@H](O)[C@H](O[C@@H]2O[C@H](CO)[C@@H](O)[C@H](O)[C@H]2NC(C)=O)[C@H]1NC(C)=O [GlcNAcβ1–3GalNAcα-allyl]	C2GnT1 activity (%)	<1%
CC(=O)N[C@H]1[C@@H](OCc2ccccc2)O[C@H](CO)[C@H](O)[C@@H]1O[C@@H]1O[C@H](CO)[C@H](F)[C@H](O)[C@H]1O [4-F-4-Deoxy-Galβ1–3GalNAcα-Bn]	C2GnT1 activity (%)	<1%
CC(=O)N[C@@H]1C[C@@H](O)[C@@H](CO)O[C@@H]1OCc1ccccc1 [3-Deoxy-GalNAcα-Bn]	C2GnT1 activity (%)	<1%
CC(=O)N[C@H]1[C@@H](OCc2ccccc2)O[C@H](CO)[C@@H](O)[C@@H]1O[C@@H]1O[C@H](CO)[C@H](O)[C@H](O)[C@H]1O [Galβ1–3GlcNAcα-Bn]	C2GnT1 activity (%)	<1%
CC(=O)N[C@H]1[C@@H](OCc2ccccc2)O[C@H](CO)[C@H](O)[C@@H]1O[C@@H]1O[C@H](CO)C[C@H](O)[C@H]1O [4-Deoxy-Galβ1–3GalNAcα-Bn]	C2GnT1 activity (%)	<1%
CO[C@H]1O[C@H](CO)[C@H](O)[C@H](O[C@@H]2O[C@H](CO)[C@H](O)[C@H](O)[C@H]2O[C@@H]2O[C@@H](C)[C@@H](O)[C@@H](O)[C@@H]2O)[C@H]1NC(C)=O [Fucα1–2Galβ1–3GalNAcα-methyl]	C2GnT1 activity (%)	<1%
CO[C@H]1[C@@H](O)[C@@H](CO)O[C@@H](O[C@H]2[C@@H](O)[C@@H](CO)O[C@H](OCc3ccccc3)[C@@H]2NC(C)=O)[C@@H]1O [3-O-Methyl-Galβ1–3GalNAcα-Bn]	C2GnT1 activity (%)	104%
CC(=O)N[C@H]1[C@@H](OCc2ccccc2)O[C@H](CO[C@@H]2O[C@H](CO)[C@@H](O)[C@H](O)[C@H]2NC(C)=O)[C@H](O)[C@@H]1O [GlcNAcβ1–6-GalNAcα-Bn]	C2GnT1 activity (%)	<1%
CO[C@@H]1O[C@H](CO)[C@H](O)[C@H](O[C@@H]2O[C@H](CO)[C@@H](O)[C@H](O)[C@H]2NC(C)=O)[C@H]1O [GlcNAcβ1–3-Galβ-methyl]	C2GnT1 activity (%)	<1%
